- protocol-summary: CEETOX_H295R_11DCORT: CeeTox H295R High-throughput Steroidogenesis Assay for 11-Deoxycortisol (11DCORT) (AID 2283432)
- experimental-parameters: actives raise or lower the signal
Activity calls are given as the source filed them. Rule for the calls: active = hit-call score of the fitted dose curve at least 0.9, where 1 is the maximum; inactive = score below 0.9.
Labels: true = active, false = inactive

>>> answer_label("CCNc1nc(Cl)nc(NC(C)(C)C#N)n1")
"false"
>>> answer_label("CCOP(=S)(OCC)Oc1ccc([N+](=O)[O-])cc1")
"true"
>>> answer_label("Nc1nc(N)nc(NC2CC2)n1")
"false"
>>> answer_label("FC(F)C(F)(F)OCC(Cn1cncn1)c1ccc(Cl)cc1Cl (stereo unspecified)")
"false"
>>> answer_label("O=C(O)c1cc(Oc2ccc(C(F)(F)F)cc2Cl)ccc1[N+](=O)[O-]")
"false"
>>> answer_label("CNc1cnn(-c2cccc(C(F)(F)F)c2)c(=O)c1Cl")
"true"

====

- tested-system: human Dual Specificity Protein Phosphatase 3 (DUSP3), DUSP3 (gene 1845) (UniProt P51452)
- Sequence (P51452 whole entry, looked up): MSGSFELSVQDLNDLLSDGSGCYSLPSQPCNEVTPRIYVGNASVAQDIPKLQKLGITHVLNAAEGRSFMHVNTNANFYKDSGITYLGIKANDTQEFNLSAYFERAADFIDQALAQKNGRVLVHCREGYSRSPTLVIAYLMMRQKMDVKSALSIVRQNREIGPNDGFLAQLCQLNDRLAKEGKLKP
- protocol-summary: NVS_ENZ_hDUSP3: NovaScreen (NVS) Enzymatic Assay for human Dual Specificity Protein Phosphatase 3 (DUSP3) (AID 2283152);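 note: phosphatase activity of recombinant human DUSP3 on a fluorogenic substrate without cells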
Active and inactive are the calls of the source. Rule for the calls: active = hit-call score of the fitted dose curve at least 0.9, where 1 is the maximum; inconclusive = response in the unintended direction; inactive = score below 0.9.
Outcome codes: yes (1) (active), no (0) (inactive)

>>> answer_label("CN(C)[C@@H]1C(=O)C(C(N)=O)=C(O)[C@@]2(O)C(=O)C3=C(O)c4c(O)cccc4[C@@](C)(O)[C@H]3[C@H](O)[C@@H]12")
"yes (1)"
>>> answer_label("CC[C@H](C)[C@H]1O[C@]2(C=C[C@@H]1C)C[C@@H]1C[C@@H](C/C=C(\\C)[C@@H](O[C@H]3C[C@H](OC)[C@@H](O[C@H]4C[C@H](OC)[C@@H](NC)[C@H](C)O4)[C@H](C)O3)[C@@H](C)/C=C/C=C3\\CO[C@@H]4[C@H](O)C(C)=C[C@@H](C(=O)O1)[C@]34O)O2")
"no (0)"
>>> answer_label("CCCCOC(=O)[C@@H](C)Oc1ccc(Oc2ccc(C#N)cc2F)cc1")
"no (0)"
>>> answer_label("C=C(C)[C@H]1Cc2c(ccc3c2O[C@@H]2COc4cc(OC)c(OC)cc4[C@@H]2C3=O)O1")
"no (0)"

====

- Read-out: ABC Transporter (ABCB1), ABCB1 (gene 5243)
- protocol-summary: LTEA_HepaRG_ABCB1: Life Technologies and Expression Analysis (LTEA) Assay for ABC Transporter (ABCB1) using HepaRG (AID 2283460)
- experimental-parameters: mRNA level, 48 h; actives raise or lower the signal
Active and inactive are the calls of the source. How the source made its calls: active means hit-call score of the fitted dose curve at least 0.9, where 1 is the maximum; inactive means score below 0.9.
measured-attribute: AC50

>>> val("O=C(O)c1cc(Oc2ccc(C(F)(F)F)cc2Cl)ccc1[N+](=O)[O-]")
"50 µM (active)"
>>> val("C=C(C)[C@H]1Cc2c(ccc3c2O[C@@H]2COc4cc(OC)c(OC)cc4[C@@H]2C3=O)O1")
"18.6 µM (active)"
>>> val("C[N+]1(C)CCCCC1")
"inactive"
>>> val("CCCOCC(=Nc1ccc(Cl)cc1C(F)(F)F)n1ccnc1")
"80.5 µM (active)"
>>> val("COP(=O)(OC)C(O)C(Cl)(Cl)Cl (stereo unspecified)")
"inactive"
>>> val("CCOP(=S)(OCC)SCCSCC")
"0.0511 µM (active)"
